Consider the following compounds; for each one, report its composite z-score.
Assay: small-molecule microarray binders of probe aDKK1, primary screen, biochemical, biotinylated probe, 635/667 nm fluorescence (AID 1099);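 further: score merges 667nm spot fluorescence with signal to noise across triplicate slides; reference of the scale not given here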
Conditions: higher = more signal
Number only, no unit.

Reported composite z-score, compound CC(=O)OC[C@H]1O[C@H](CC=NOC[C@@H](C)[C@H](OCc2ccccc2)C(C)C)C=C[C@@H]1OC(C)=O : ____
-0.262

Fill in the blank: the reported composite z-score of CC(C)CON=C1C[C@@H](O)[C@@H](O)[C@@H]2[C@@H]3C(=O)N(Cc4ccccc4)C(=O)[C@@H]3CC[C@@H]12 is ____.
-0.278

I have this compound here, CCN1C(=O)[C@H]2[C@H]3[C@H](O)[C@H](O)CC(=NOCc4ccccc4)[C@@H]3CC[C@H]2C1=O , and I need its recorded composite z-score.
0.214

====

Assay: small-molecule microarray binders of probe aLefty2, primary screen, biochemical, biotinylated probe, 635/667 nm fluorescence (AID 1094);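 further: score merges spot fluorescence near 667 nm with spot signal-to-noise ratio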
Conditions: higher = more signal
Label rule, in plain words: composite z-score of -0.2 and up is Met, under -0.2 is Not met.

Given the entry CC(C)c1ccc(NN2C(C(O)c3ccc4c(c3)OCO4)C=CC3C(=O)N(c4ccccc4)C(=O)C32)cc1 (stereo not drawn) , answer whether its composite z-score meets or surpasses -0.2.
Met

Is composite z-score at least -0.2? Consider C[C@H](c1ccccc1)N1C(=O)[C@H]2[C@@H]3C(=CC[C@H]2C1=O)C(=O)[C@H]1O[C@H]1[C@H]3O
Met

// inclusive: composite z-score at least -0.2? input: Cc1cc2c(c(=O)o1)[C@H](O)[C@H]1O[C@H]1C2=O
Met

Can C[C@@H]1CC[C@H]2C(=O)O[C@H](COc3ccc(C(C)(C)C)cc3)CN2[C@H]1c1ccc(Br)cc1 be said to have composite z-score at or above -0.2?
Not met

Check the entry C[C@@H](c1ccccc1)N1C(=O)[C@H]2[C@H]3[C@H](O)C=CC(=O)[C@@H]3CC[C@H]2C1=O : does composite z-score equal or exceed -0.2?
Not met

Could you tell me if the measured composite z-score of COc1cccc([C@@H]2Oc3ccc(Br)cc3C(=O)[C@H]2O)c1 reaches -0.2 or more?
Met

Entry CO[C@@H]1COC(=O)CC=C[C@@H](C)[C@@H]2C=C[C@@H](O)[C@@H](COC(=O)CC=C[C@H]1C)O2 : is its composite z-score no less than -0.2?
Met

Identify whether the reported composite z-score of the following molecule is -0.2 or greater: CCOC(=O)[C@H](CC(C)C)NC(=O)CCC1CC(OC(=O)NCc2cccc3ccccc23)CC2(CCCC(COC(=O)NCCc3ccccc3OC)O2)O1 (stereo partly drawn)
Met

====

Biological target: Torsin-1A-interacting protein 1 (Homo sapiens)
Experiment: LAP1 binders from COS7 cell lysate, primary screen, small-molecule microarray, 635/667 nm fluorescence (AID 1116)
Settings: COS7-hLAP1 lysate binding, 635 nm fluorescence, higher = more signal
Give measured composite z-score for each item. Keep answers brief.
Enter a number only.

Can you share its composite z-score? I mean this compound: COCCCNC(=O)[C@@]1(CCS(=O)(=O)c2ccccc2)N=C(c2ccc(OCCCO)cc2)O[C@H]1c1ccccc1
2.95

Suppose we examine the compound O=C1O[C@@H](c2ccccc2)[C@@H](c2ccccc2)N2[C@@H](c3ccc(OCCO)cc3)[C@]3(C(=O)Nc4ccc(C#CCCO)cc43)[C@@H](C(=O)N3CCCCCCC3)[C@H]12 ; what composite z-score value has been reported?
4.07

Give its composite z-score value. Item: COc1ccccc1CN1C(=O)c2ccccc2[C@@]2(Cc3ccccc3N(C(C)C)C2=O)[C@@H]1c1ccc(CO)cc1
-0.509

# get_value(readout='composite z-score', item= COC(=O)C1=C(C)N(Cc2ccccc2)[C@]23O[C@](C(=O)OC)(C(=O)N2[C@@H]1c1ccccc1)[C@H]1CCOC(=O)[C@H]13 )
0.333
